- System: Pyricularia oryzae
- EXPERIMENT_DESCRIPTION: microbe, parasite or virus in culture
- Format: cell-based
- STUDY_CONDITIONS: 168 h, read-out: control
// values below are reported inhibition of growth at 300 ppm

// solved cases for inhibition of growth at 300 ppm follow
[[record]]
compound = "CCN(C)C=Nc1cc(C)c(C(=O)CSc2ccc(C)c(C)c2)cc1C [Compound 11]"
target_entity = "Pyricularia oryzae"
measured_result = "> 70%"

[[record]]
compound = "CCN(C)C=Nc1cc(C)c(C(=O)COc2cccc(Br)c2)cc1C [Compound 3]"
target_entity = "Pyricularia oryzae"
measured_result = "> 70%"

[[record]]
compound = "CCN(C)C=Nc1cc(C)c(C(=O)CSc2cccc(F)c2)cc1C [Compound 4]"
target_entity = "Pyricularia oryzae"
measured_result = "> 70%"


Provide value of inhibition of growth at 300 ppm for this record tested with Pyricularia oryzae: CCN(C)C=Nc1cc(C)c(C(=O)CSc2cccc(OC)c2)cc1C [Compound 27]
> 70%

Provide value of inhibition of growth at 300 ppm for this record tested with Pyricularia oryzae: CCN(C)C=Nc1cc(C)c(C(=O)Cn2cnnc2)cc1C [Compound 114]
> 70%

Provide value of inhibition of growth at 300 ppm for this record tested with Pyricularia oryzae: CCN(C)C=Nc1cc(C)c(C(=O)COc2c(Cl)cccc2Cl)cc1C [Compound 86]
> 70%
